Test system: IL-4 stimulated CD23 upregulation in human Ramos B cells (JAK-1/JAK-3, Stat-6)
Assay Summary: Assay for Ramos B-Cell Line Stimulated with IL-4 (CD23 upregulation, FACS)
Assay type: cell-based
Assay Setup: Table III Example 3
Method: One means of assaying for such inhibition is detection of the effect of the 2,4-pyrimidinediamine compounds on the upregulation of downstream gene products. […] 20 to 24 hours post stimulation, cells are stained for upregulation of CD23 and analyzed using flow cytometry (FACS). […]
pIC50: −log10 of the molar value.
Decide using pIC50: a value greater than or equal to 7 is MET, a smaller one is NOT MET.

| Compound | Answer Label |
| --- | --- |
| Cc1cnc(Nc2cccc(S(=O)(=O)NC(=O)CNC(=O)OCc3ccccc3)c2)nc1Nc1cccc(CNS(=O)(=O)C2CC2)c1 | NOT MET |
| CCC(=O)NS(=O)(=O)c1cccc(Nc2ncc(C)c(Nc3cccc(CN(C(=O)CC)S(=O)(=O)C4CC4)c3)n2)c1 [Compound I-226] | NOT MET |
| CCC(=O)NS(=O)(=O)c1cccc(Nc2ncc(F)c(Nc3ccc(CNS(=O)(=O)C4CC4)cc3)n2)c1 | NOT MET |

Item `Cc1cnc(Nc2ccc(S(=O)(=O)Nc3cccnc3)cc2)nc1Nc1ccc(CNS(=O)(=O)C2CC2)cc1` with pIC50 of 7 or above?
NOT MET

Item `Cc1cnc(Nc2ccc(S(=O)(=O)NC(C)C)cc2)nc1Nc1ccc(CNS(=O)(=O)C2CC2)cc1` with pIC50 of 7 or above?
MET
